Test system: HCC-2998 colon
Assay info: NCI tumour cell line growth inhibition, 48 h
Where a SMILES comes first, the peptide text is derived from it. [ ]: non-standard residue; d: D form. The star is where a group is joined. ξ: configuration not given here. ξW = NC(Cc1c[nH]c2ccccc12)C(=O)O; X30 = O=C(O)[C@H]1CCC[C@H]1N*; ξF = NC(Cc1ccccc1)C(=O)O; Boc = CC(C)(C)OC(=O)*; ξK = NCCCCC(N)C(=O)O; ξT = CC(O)C(N)C(=O)O; tBu = CC(C)(C)*

>  <Compound>
COC(=O)CCSC1=CC(=O)c2nc3ccccc3c3ccnc1c23

>  <TGI>
27.6 µM

$$$$
>  <Compound>
CC(OC(C)(C)C)C(NC(=O)C(CCCCNC(=O)OC(C)(C)C)NC(=O)C(Cc1c[nH]c2ccccc12)NC(=O)C(N)Cc1ccccc1)C(=O)NC(Cc1ccccc1)C(=O)N[C@@H]1CCC[C@@H]1C(=O)O (stereo partly specified) (H-[ξF][ξW][ξK](Boc)[ξT](tBu)[ξF]-X30)

>  <TGI>
41.1 µM

$$$$
>  <Compound>
Cc1ccc(S(=O)(=O)c2ccsc2NC(=O)c2ccccc2)cc1

>  <TGI>
> 100 µM

$$$$
>  <Compound>
COC(=O)c1c2c(cc3c1CC1(C3)Cc3ccc4c(c3C1=O)CCC4)CCC2 (stereo unspecified)

>  <TGI>
40.1 µM

$$$$
>  <Compound>
CC1OC(n2cc(I)c(=O)[nH]c2=O)C=CC1=O (stereo unspecified)

>  <TGI>
31.5 µM

$$$$
>  <Compound>
Cc1n(CC(C)C)c2c([n+]1CC(=O)c1ccc([N+](=O)[O-])cc1)C(=O)c1ccccc1C2=O

>  <TGI>
1.18 µM

$$$$
>  <Compound>
Cc1cc(O)c(O)c(Oc2cc(C)cc(O)c2O)c1

>  <TGI>
> 100 µM

$$$$
>  <Compound>
O=C1C2C3CCC(C2C(=O)N1CO)C1C2C(=O)N(CO)C(=O)C2C31 (stereo unspecified)

>  <TGI>
> 100 µM

$$$$
>  <Compound>
Cc1cccc2c1ccc1c3occ(C)c3c(=O)oc21

>  <TGI>
> 100 µM

$$$$
>  <Compound>
Nc1ncnc2c1c(C(=O)NO)cn2C1OC(CO)C(O)C1O (stereo unspecified)

>  <TGI>
6.83 µM

$$$$
>  <Compound>
CCc1cccc(CC)c1NC(=O)c1ccn2c1CCc1cnc(Nc3ccc(N4CCN(C)CC4)cc3OC)nc1-2

>  <TGI>
8.63 µM

$$$$
>  <Compound>
COC1CC(n2ccc(=O)[nH]c2=O)OC1CO (stereo unspecified)

>  <TGI>
> 100 µM

$$$$
>  <Compound>
COC(=O)C(CCSc1ccccc1)C(=O)OC

>  <TGI>
> 100 µM

$$$$
>  <Compound>
CCN(CC)CCNc1ccc2ncn3c4c(OC)ccc(=O)c4c(O)c1c23

>  <TGI>
> 100 µM

$$$$
>  <Compound>
Cc1ccc(C(CC(=O)c2ccccc2)C(C(=O)c2ccccc2)C(c2ccc(C)cc2)C2C(=O)NC(=S)NC2=O)cc1 (stereo unspecified)

>  <TGI>
> 50 µM

$$$$
>  <Compound>
CCCC(=O)[O-].CCCC(=O)[O-].N.N.N.N.[Co+3].[O-][Cl+3]([O-])([O-])[O-]

>  <TGI>
> 100 µM

$$$$
>  <Compound>
O=C(CC(=O)c1cccc([N+](=O)[O-])c1)C(=O)Nc1nc([N+](=O)[O-])cs1

>  <TGI>
> 100 µM

$$$$
>  <Compound>
CCN(CC)C(=O)N[C@@H](Cc1ccccc1)C(=O)NC

>  <TGI>
> 100 µM

$$$$
>  <Compound>
NCC(=O)NC(CO)C(=O)O (stereo unspecified)

>  <TGI>
> 100 µM

$$$$
>  <Compound>
CCOc1ccc(N=Nc2c(-c3ccccc3)nn(C(=O)CC(=O)Nc3cccc(C)c3)c2-c2ccccc2)cc1

>  <TGI>
> 100 µM

$$$$
>  <Compound>
Cc1ccc(-c2n[nH]c(=O)n2N2C(=O)C=CC2=O)cc1

>  <TGI>
> 100 µM

$$$$
